Kindly supply the reported abundance fitness values for the records listed here.
B1: POU domain, class 4, transcription factor 1, residues 266 to 347; numbered along this chain, Q01851 (parent)
chain: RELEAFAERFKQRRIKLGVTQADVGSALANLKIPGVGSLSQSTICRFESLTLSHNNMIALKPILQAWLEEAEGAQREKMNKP

Variants of: B1
measurement-protocol: abundance fitness (aPCA) (normalised: wild type 0, dead -1); higher = more abundant; growth selection in yeast, the domain comes from the species named
assay-conditions: Homo sapiens
A bare number is all that is needed in reply.

Item RELEAFAERFKQRRIKLGVTQADVGSALAYLKIPGVGSLSQSTICRFESLTLSHNNMIALKPILQAWLEEAEGAQREKMNKP has what recorded abundance fitness? 0.033

Any idea what abundance fitness was measured for RELEAFAERFKQRRIKLGVTQADVGSALANLKIPGVGSLSQSTICRFESLTLSHNNMIALKPILQAWLEEAEGAQREKMNQP ? -0.042

I would be grateful if you could share the reported abundance fitness for RELEAFAERFKQRRIKLGVTQADVGSALANLKIPGVGSLSQSTISRFESLTLSHNNMIALKPILQAWLEEAEGAQREKMNKP . 0.079

Consider the variant shown here: RELEAFAERFKQRRIKLGVTQADVGSALANLKIPGVGSLSQSTICRFESLTLSHNNMIALLPILQAWLEEAEGAQREKMNKP What is its recorded abundance fitness? -0.198

What value of abundance fitness has been recorded for this entry: RELEAFAERFKQRRIKLGVTQADVGSALANLKIPGVGSLSQSTICRFESLGLSHNNMIALKPILQAWLEEAEGAQREKMNKP -0.021

# get_value(readout='abundance fitness', item= RELEAFAERFKQRRIKLGVTQADVGSALANLKIPGVGSLSQSTICRYESLTLSHNNMIALKPILQAWLEEAEGAQREKMNKP ) -0.272

Which abundance fitness value is on record for RELEAFAERFKQRRIKLGVTQADVGSALANLKIPGVGSLSQSTICRFESLTLSHNNDIALKPILQAWLEEAEGAQREKMNKP ? -0.935

Can you look up the measured abundance fitness of RELEAFAERFKQRRIKLGVTQADVGSALANLKIPGVGSLSQSTICRFESLYLSHNNMIALKPILQAWLEEAEGAQREKMNKP for me? -0.368

Quick one: abundance fitness for RELEAFAERFEQRRIKLGVTQADVGSALANLKIPGVGSLSQSTICRFESLTLSHNNMIALKPILQAWLEEAEGAQREKMNKP ? -0.476

Given the variant RELEAFAERFKQRRIKLGVTQADVGSALANLKIPGVGSLSQSTICRFESLTLSHNNMIALKPILQAWLEEAEGAQREKMNKL , what is its reported abundance fitness? -0.123

# abundance fitness lookup, item RELEAFAERFKQRRIKLGVTQADHGSALANLKIPGVGSLSQSTICRFESLTLSHNNMIALKPILQAWLEEAEGAQREKMNKP -0.815

Given the variant RELEAFAERFKQRRIKLGVTQADVGSALANLKIPGVGSLSQSTICRFESLTLSHNNMIALKPILWAWLEEAEGAQREKMNKP , what is its reported abundance fitness? -0.144

Any idea what abundance fitness was measured for RELEAFAERFKQRRIKLGVTQADVGSALANLKIPGVGSLSQSTICRFESLTLSHNNMIALKPGLQAWLEEAEGAQREKMNKP ? -0.274

Can you look up the measured abundance fitness of RELEAFAERFKQRRIKLGVTQADVGSSLANLKIPGVGSLSQSTICRFESLTLSHNNMIALKPILQAWLEEAEGAQREKMNKP for me? -0.023

Please look up its abundance fitness: RELEAFAERFKQRRIKLGVTQADVGSALANLKIPGVGSLSQSTICRFESLTLSHNNMIALKPILQAWLEEAEGALREKMNKP -0.001

Fill in the blank: the reported abundance fitness of RELEAFAERFKQRRIKLGVTQADVGSALANLKIPGVKSLSQSTICRFESLTLSHNNMIALKPILQAWLEEAEGAQREKMNKP is ____. -0.074

Please give the measured abundance fitness for this variant: RELEAFAERFKQRRIKLGVTQADVGSALANLKIPGVGSLSQSTICRFESLTLTHNNMIALKPILQAWLEEAEGAQREKMNKP -0.174

Find the recorded abundance fitness belonging to RELEAPAERFKQRRIKLGVTQADVGSALANLKIPGVGSLSQSTICRFESLTLSHNNMIALKPILQAWLEEAEGAQREKMNKP and report it. -0.951

Requested read-out: abundance fitness. Entry: RELEAFAERFKQRRIKLGVTQADVGSALANLKIPGVGSLSQSTICWFESLTLSHNNMIALKPILQAWLEEAEGAQREKMNKP -0.391

Which abundance fitness value belongs to RELEAFAERFKQRRIKLGVTQADVGSALANLKIPGVGSLSQSTICRFESLTLSHNNMIALKPILQAWLEEAEGAQREDMNKP ? -0.153

Can you look up the measured abundance fitness of RELEAFAERFKQRRIRLGVTQADVGSALANLKIPGVGSLSQSTICRFESLTLSHNNMIALKPILQAWLEEAEGAQREKMNKP for me? 0.035

Requested field: abundance fitness. Item: RELEAFAERFKQRRDKLGVTQADVGSALANLKIPGVGSLSQSTICRFESLTLSHNNMIALKPILQAWLEEAEGAQREKMNKP -0.211

Can you look up the measured abundance fitness of RELEAFAERFKQRRIKLGVTQADVGSALANLKIPGVGSLSQSTICNFESLTLSHNNMIALKPILQAWLEEAEGAQREKMNKP for me? 0.047

// returns reported abundance fitness for input RELEAFAERFKQRRIKLGVTQADVGSALANLKIPGVGSLSQSTICRFESLTLSHNNMIALKPILQAWLEDAEGAQREKMNKP -0.018

Entry RELEAFAERFKQRRIKLGVTQADVLSALANLKIPGVGSLSQSTICRFESLTLSHNNMIALKPILQAWLEEAEGAQREKMNKP : reported abundance fitness = ? -0.038

// lookup abundance fitness for RELEAFAERFKQRRIKLGVTQADVGSALANLKIPGVGSLSQSTINRFESLTLSHNNMIALKPILQAWLEEAEGAQREKMNKP -0.084

Need abundance fitness of RELEAFAERFKQRRIKLGVTQADVGSALANLKIPGVGSLSQSTICRFESLTLSHNNMIALKPILQAWLEEAEGAQREKFNKP , thanks. 0.024

Fill in the blank: the reported abundance fitness of RELEAFAERFKQRRIKLGVTQADVGSALANLKIPGVGSLSQSTICRFESLALSHNNMIALKPILQAWLEEAEGAQREKMNKP is ____. -0.015

Please report the recorded abundance fitness for RELEAFAERFKQRRIKLGVTQADVGSALANLKIPGVGSLEQSTICRFESLTLSHNNMIALKPILQAWLEEAEGAQREKMNKP . -0.063

Which abundance fitness is reported for this variant? RELEAFAERFKQRRIKLGVTQADVGSALANLKIPGVGSLSQSTICRFCSLTLSHNNMIALKPILQAWLEEAEGAQREKMNKP -1.27

So what's the measured abundance fitness for this one? RELEAFAERFKQRRIKLGVTQADVGSALANLKIPGVGSLSQSTICRFESLTLSHNNIIALKPILQAWLEEAEGAQREKMNKP -0.16

Which value of abundance fitness has been reported for RELEAFAERFKQRRIKLGVTQADVGSALANLKVPGVGSLSQSTICRFESLTLSHNNMIALKPILQAWLEEAEGAQREKMNKP in the records? 0.05

Give its abundance fitness value. Item: RELEAFAERFKQRRIKLGVTQADVGSALANLPIPGVGSLSQSTICRFESLTLSHNNMIALKPILQAWLEEAEGAQREKMNKP -0.204

I have this variant here, RELEAFAERFKQRRINLGVTQADVGSALANLKIPGVGSLSQSTICRFESLTLSHNNMIALKPILQAWLEEAEGAQREKMNKP , and I need its recorded abundance fitness. 0.011

So what does the record say about abundance fitness for RELEAFAERFKQRRIKLGVTQADVGSALANLKIPGVGSLSQSTACRFESLTLSHNNMIALKPILQAWLEEAEGAQREKMNKP ? -1.18

Could you share which abundance fitness value was measured for RELEAFAERFKQRRIKLEVTQADVGSALANLKIPGVGSLSQSTICRFESLTLSHNNMIALKPILQAWLEEAEGAQREKMNKP ? -0.332

I'd like to know its abundance fitness. The variant in question is RELEAFAERFKQRRIKLGVTQADVGSALANLKIPGVGSLSQSTICRFESLTLSHNNMIALKPILKAWLEEAEGAQREKMNKP -0.049

Find the recorded abundance fitness belonging to RELEAFSERFKQRRIKLGVTQADVGSALANLKIPGVGSLSQSTICRFESLTLSHNNMIALKPILQAWLEEAEGAQREKMNKP and report it. -0.203

Tell me the measured abundance fitness of RELEAFAERFKQNRIKLGVTQADVGSALANLKIPGVGSLSQSTICRFESLTLSHNNMIALKPILQAWLEEAEGAQREKMNKP , please. -0.156

Fill in: abundance fitness of RELEAFAERFKQIRIKLGVTQADVGSALANLKIPGVGSLSQSTICRFESLTLSHNNMIALKPILQAWLEEAEGAQREKMNKP is ___ -0.09

Tell me the measured abundance fitness of RELEAFAERFKQRRIKLGVTQADVGSALANLKIPGVGSLSQSTICRFESLTLSHNNMIALKPILQAWLEEAEGAYREKMNKP , please. -0.085

May I ask what abundance fitness has been recorded for RELEAFAERFKQRRIKLGVTQADVGSALANLKIPGVGSLSQSTICRFESLTLSHNNMIALEPILQAWLEEAEGAQREKMNKP ? -0.022

Fill in the blank: the reported abundance fitness of RELEAFAERFKQRRIKLGVTQADVGSALANLKIPGVGSLSQSTICRFESLTLSHNNMIALKPILQAWLGEAEGAQREKMNKP is ____. -0.207

abundance fitness for RELEAFAERFKQRRIKLGVAQADVGSALANLKIPGVGSLSQSTICRFESLTLSHNNMIALKPILQAWLEEAEGAQREKMNKP ? -0.052

Need abundance fitness of RELEAFAERFKQRRIKLGVTQADVGSPLANLKIPGVGSLSQSTICRFESLTLSHNNMIALKPILQAWLEEAEGAQREKMNKP , thanks. -1.23

Tell me the measured abundance fitness of RELEAFAERFKCRRIKLGVTQADVGSALANLKIPGVGSLSQSTICRFESLTLSHNNMIALKPILQAWLEEAEGAQREKMNKP , please. -0.466
